These measurements were taken from patent US20230312529A1.

Biological target: UniProt:P09619
Experiment: Caliper Mobility Shift kinase inhibition test
Assay type: biochemical
Settings: 100 nM; read-out: inhibitory rate on PDGFR-β
measuredAttribute: inhibition at 0.1 µM (%)

In the examples that follow, each entry is paired with its recorded inhibition at 0.1 µM.
[[record]]
chemicalstring = "CN1CCN(c2ccc(Nc3ncc(C(F)(F)F)c(Nc4ccc5cn[nH]c5c4)n3)cc2)CC1"
endpointvalue = 81

[[record]]
chemicalstring = "Cc1cnc(Nc2ccc(C(=O)N3CCN(C)CC3)cc2)nc1Nc1ccc2cn[nH]c2c1"
endpointvalue = 78.4

[[record]]
chemicalstring = "Cc1cnc(Nc2ccc(N3CCN(C)CC3)cc2)nc1Nc1ccc2nccnc2c1"
endpointvalue = 74.1

[[record]]
chemicalstring = "Cc1cnc(Nc2ccc(N3CCNCC3)cc2)nc1Nc1ccc2cn[nH]c2c1"
endpointvalue = 68.7

[[record]]
chemicalstring = "CN1CCN(c2ccc(Nc3ncc(Cl)c(Nc4ccc5cn[nH]c5c4)n3)cc2)CC1"
endpointvalue = 95.8


[1] Cc1cnc(Nc2ccc(N3CCN(C)CC3)cc2)nc1Nc1ccc2cnn(C)c2c1
[2] CCOC(=O)c1cnc(Nc2ccc(N3CCN(C)CC3)cc2)nc1Nc1ccc2cn[nH]c2c1
[3] COc1cnc(Nc2ccc(N3CCN(C)CC3)cc2)nc1Nc1ccc2cn[nH]c2c1
[4] CN1CCN(c2ccc(Nc3nc(Nc4ccc5cn[nH]c5c4)cc(C(F)(F)F)n3)cc2)CC1
Put these in order: smallest inhibition at 0.1 µM first, largest last. # list labels per requested ordering
2, 4, 3, 1
(2: 3.5%, 4: 7.2%, 3: 55%, 1: 96.4%)

* * *

Target: FLT3 (Homo sapiens (Human))
Assay: Caliper Mobility Shift kinase inhibition test
Assay type: biochemical
Settings: 100 nM
measuredAttribute: inhibitory rate on FLT3 (%)

In the examples that follow, each entry is paired with its recorded inhibitory rate on FLT3.
[[record]]
molecule = "Cc1cc2c(Nc3ccc4cn[nH]c4c3)nc(Nc3ccc(N4CCN(C)CC4)cc3)nc2s1 [Compound 3i]"
testedtarget = "FLT3 (Homo sapiens (Human))"
unitofmeasurement = "%"
endpointvalue = 42.6

[[record]]
molecule = "Cc1cnc(Nc2ccc(N3CCN(C)CC3)cc2)nc1Nc1cccc2[nH]ccc12 [Compound 5b]"
testedtarget = "FLT3 (Homo sapiens (Human))"
unitofmeasurement = "%"
endpointvalue = 60.9


[I] Cc1cnc(Nc2ccc(C(=O)NCCN3CCOCC3)cc2)nc1Nc1ccc2cn[nH]c2c1 [Compound 6n]
[II] Cc1cc(Nc2ccc3cn[nH]c3c2)nc(Nc2ccc(N3CCN(C)CC3)cc2)n1 [Compound 3h]
Given the two records I and II , choose the one whose inhibitory rate on FLT3 value is lower. Mark your selection by writing its label.
II

[I] Cc1cnc(Nc2ccc(N3CCN(C)CC3)cc2)nc1Nc1ccc2nccnc2c1 [Compound 5f]
[II] Cc1cnc(Nc2ccc(N3CCN(C)CC3)cc2)nc1Nc1ccc2[nH]ccc2c1 [Compound 5a]
Given the two records I and II , choose the one whose inhibitory rate on FLT3 value is lower. Mark your selection by writing its label.
II

* * *

Target: FLT3 (Homo sapiens (Human))
Experiment: Caliper Mobility Shift kinase inhibition test
Type: biochemical
Conditions: 100 nM; read-out: inhibitory rate on FLT3
Experimental: The method adopted in the test was Caliper Mobility Shift Assay, which was a detection platform based on the mobility detection technology of microfluidic chip technology. […] When IC50 was determined, each sample was provided with 10 dilutions, each with 2 multiple holes, and repeated for 3 times.
measuredAttribute: inhibition at 0.1 µM (%)

[[record]]
compound = "CCN1CCN(c2ccc(Nc3ncc(C)c(Nc4ccc5cn[nH]c5c4)n3)cc2OC)CC1 [Compound 6i]"
endpointvalue = 98.9

[[record]]
compound = "Cc1cnc(Nc2ccc(N3CCN(C)CC3)cc2)nc1Nc1ccc2c(cnn2C)c1 [Compound 5c]"
endpointvalue = 65.4


[P] Cc1cnc(Nc2ccc(N3CCN(C)CC3)cc2)nc1Nc1ccc2cn[nH]c2c1 [Compound 3d]
[Q] COc1cnc(Nc2ccc(N3CCN(C)CC3)cc2)nc1Nc1ccc2cn[nH]c2c1 [Compound 3e]
Lab note: record which item had the higher inhibition at 0.1 µM, P or Q . Mark your selection by writing its label.
P

* * *

Target: ABL1 (Homo sapiens (Human))
Sequence (P00519 whole entry): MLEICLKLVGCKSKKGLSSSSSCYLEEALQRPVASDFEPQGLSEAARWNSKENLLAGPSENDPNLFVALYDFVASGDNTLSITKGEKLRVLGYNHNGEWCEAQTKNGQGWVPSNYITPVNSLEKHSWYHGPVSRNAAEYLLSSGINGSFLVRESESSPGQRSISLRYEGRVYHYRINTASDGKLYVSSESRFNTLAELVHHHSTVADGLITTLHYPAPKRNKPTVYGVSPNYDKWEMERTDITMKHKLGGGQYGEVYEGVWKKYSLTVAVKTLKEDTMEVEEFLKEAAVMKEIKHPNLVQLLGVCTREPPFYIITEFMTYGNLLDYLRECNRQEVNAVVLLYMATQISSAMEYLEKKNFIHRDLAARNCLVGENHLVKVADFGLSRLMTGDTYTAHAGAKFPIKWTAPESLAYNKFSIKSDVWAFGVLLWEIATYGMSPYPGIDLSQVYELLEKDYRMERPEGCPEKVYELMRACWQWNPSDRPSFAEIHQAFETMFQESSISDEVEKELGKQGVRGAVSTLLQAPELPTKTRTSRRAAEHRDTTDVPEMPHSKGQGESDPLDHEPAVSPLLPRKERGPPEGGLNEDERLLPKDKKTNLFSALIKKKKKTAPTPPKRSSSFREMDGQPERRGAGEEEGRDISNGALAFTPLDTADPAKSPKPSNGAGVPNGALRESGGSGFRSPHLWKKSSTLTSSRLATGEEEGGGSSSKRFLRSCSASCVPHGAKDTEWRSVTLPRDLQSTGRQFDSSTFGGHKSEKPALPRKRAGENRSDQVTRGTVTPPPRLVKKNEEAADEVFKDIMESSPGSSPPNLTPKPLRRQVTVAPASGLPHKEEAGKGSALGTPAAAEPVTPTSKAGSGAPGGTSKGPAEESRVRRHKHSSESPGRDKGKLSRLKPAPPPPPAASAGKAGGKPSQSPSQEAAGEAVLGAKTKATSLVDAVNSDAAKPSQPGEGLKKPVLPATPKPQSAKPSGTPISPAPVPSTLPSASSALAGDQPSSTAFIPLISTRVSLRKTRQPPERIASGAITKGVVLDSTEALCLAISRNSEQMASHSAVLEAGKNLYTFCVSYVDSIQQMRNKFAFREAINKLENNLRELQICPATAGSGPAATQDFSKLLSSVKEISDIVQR
Test: Caliper Mobility Shift kinase inhibition test
Assay type: biochemical
Settings: 100 nM
measuredAttribute: inhibitory rate on ABL1 (%)

In the examples that follow, each entry is paired with its recorded inhibitory rate on ABL1.
[[record]]
compound = "Cc1cnc(Nc2ccc(N3CCOCC3)cc2)nc1Nc1ccc2cn[nH]c2c1"
testedtarget = "ABL1 (Homo sapiens (Human))"
endpointvalue = 98.2

[[record]]
compound = "Cc1cnc(Nc2ccc(N3CCN(C)CC3)cc2)nc1Nc1ccc2nccnc2c1 [Compound 5f]"
testedtarget = "ABL1 (Homo sapiens (Human))"
endpointvalue = 90.2


[1] Cc1cnc(Nc2ccc(C(=O)NCCN3CCOCC3)cc2)nc1Nc1ccc2cn[nH]c2c1
[2] Cc1cc(Nc2ccc3cn[nH]c3c2)nc(Nc2ccc(N3CCN(C)CC3)cc2)n1
Lab note: record which item had the higher inhibitory rate on ABL1, 1 or 2 . Mark your selection by writing its label.
1
(1: 81.2%, 2: 5.9%)

* * *

Molecular target: PDGFRβ (Homo sapiens (Human))
Sequence (P09619 33-1106): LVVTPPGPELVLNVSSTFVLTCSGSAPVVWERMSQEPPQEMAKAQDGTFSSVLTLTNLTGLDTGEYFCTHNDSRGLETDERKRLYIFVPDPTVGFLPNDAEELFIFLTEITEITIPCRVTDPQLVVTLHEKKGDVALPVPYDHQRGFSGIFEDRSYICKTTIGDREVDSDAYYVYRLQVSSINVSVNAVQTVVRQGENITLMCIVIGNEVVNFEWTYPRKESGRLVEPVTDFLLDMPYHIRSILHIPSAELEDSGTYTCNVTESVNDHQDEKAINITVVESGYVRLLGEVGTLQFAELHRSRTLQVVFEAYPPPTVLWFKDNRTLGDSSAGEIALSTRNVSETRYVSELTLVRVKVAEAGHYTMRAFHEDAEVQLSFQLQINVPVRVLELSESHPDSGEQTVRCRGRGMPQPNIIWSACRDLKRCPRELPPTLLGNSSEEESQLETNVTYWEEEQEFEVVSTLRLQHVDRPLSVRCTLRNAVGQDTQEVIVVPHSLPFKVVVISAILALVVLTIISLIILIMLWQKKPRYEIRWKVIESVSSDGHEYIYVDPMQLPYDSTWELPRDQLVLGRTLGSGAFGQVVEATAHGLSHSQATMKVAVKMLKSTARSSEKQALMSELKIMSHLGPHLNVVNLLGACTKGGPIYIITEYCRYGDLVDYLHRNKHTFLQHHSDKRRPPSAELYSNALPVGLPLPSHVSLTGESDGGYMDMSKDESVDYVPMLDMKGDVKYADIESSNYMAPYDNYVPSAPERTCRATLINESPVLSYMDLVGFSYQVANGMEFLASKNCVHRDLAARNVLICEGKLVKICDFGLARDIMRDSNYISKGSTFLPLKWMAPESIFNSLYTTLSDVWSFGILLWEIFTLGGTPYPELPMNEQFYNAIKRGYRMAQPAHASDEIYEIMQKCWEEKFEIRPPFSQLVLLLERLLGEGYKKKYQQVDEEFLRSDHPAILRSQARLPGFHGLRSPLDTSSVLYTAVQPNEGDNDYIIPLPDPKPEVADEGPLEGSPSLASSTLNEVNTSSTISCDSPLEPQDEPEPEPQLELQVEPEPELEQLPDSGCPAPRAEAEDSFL
Assay: Caliper Mobility Shift kinase inhibition test
Format: biochemical
Conditions: 100 nM
Procedure: The method adopted in the test was Caliper Mobility Shift Assay, which was a detection platform based on the mobility detection technology of microfluidic chip technology. […] When IC50 was determined, each sample was provided with 10 dilutions, each with 2 multiple holes, and repeated for 3 times. […]
measuredAttribute: inhibitory rate on PDGFR-β (%)

In the examples that follow, each entry is paired with its recorded inhibitory rate on PDGFR-β.
[[record]]
chemicalstring = "Cc1cnc(Nc2ccc(N3CCN(C)CC3)cc2)nc1Nc1ccc2[nH]ncc2c1"
testedtarget = "PDGFRβ (Homo sapiens (Human))"
endpointvalue = 84.1

[[record]]
chemicalstring = "Cc1cnc(Nc2ccc(C(=O)NCCN3CCOCC3)cc2)nc1Nc1ccc2cn[nH]c2c1"
testedtarget = "PDGFRβ (Homo sapiens (Human))"
endpointvalue = 82.4

[[record]]
chemicalstring = "Cc1cnc(Nc2ccc(N3CCN(C)CC3)cc2)nc1Nc1ccc2[nH]ccc2c1"
testedtarget = "PDGFRβ (Homo sapiens (Human))"
endpointvalue = 78.6

[[record]]
chemicalstring = "Cc1cnc(Nc2ccc(N3CCN(C)CC3)cc2)nc1Nc1ccc2cn[nH]c2c1"
testedtarget = "PDGFRβ (Homo sapiens (Human))"
endpointvalue = 93.8

[[record]]
chemicalstring = "Cc1cnc(Nc2ccc(N3CCOCC3)cc2)nc1Nc1ccc2cn[nH]c2c1"
testedtarget = "PDGFRβ (Homo sapiens (Human))"
endpointvalue = 93.8

[[record]]
chemicalstring = "Cc1cnc(Nc2ccc(N3CCC(N4CCN(C)CC4)CC3)cc2)nc1Nc1ccc2cn[nH]c2c1"
testedtarget = "PDGFRβ (Homo sapiens (Human))"
endpointvalue = 85.4


[a] Cc1cnc(Nc2ccc(N3CCN(C)CC3)cc2)nc1Nc1ccc2cn(CCNC(=O)OC(C)(C)C)nc2c1
[b] Cc1cnc(Nc2ccc(N3CCC(F)(F)CC3)cc2)nc1Nc1ccc2cn[nH]c2c1
Lab note: record which item had the higher inhibitory rate on PDGFR-β, a or b . Mark your selection by writing its label.
a

* * *

Target or system JAK1 (Homo sapiens (Human), UniProt P23458): recorded IC50 listed per item.
measuredAttribute: IC50 (nM)

[[record]]
molecule = "COc1cc(Nc2ncc(C)c(Nc3ccc4cn[nH]c4c3)n2)ccc1N1CCN(C)CC1 [Compound 6f]"
endpointvalue = 31

[[record]]
molecule = "Cc1cnc(Nc2ccc(N3CCC(F)(F)CC3)cc2)nc1Nc1ccc2cn[nH]c2c1 [Compound 6c]"
endpointvalue = 72

[[record]]
molecule = "COc1cc(N2CCN(C)CC2)ccc1Nc1ncc(C)c(Nc2ccc3cn[nH]c3c2)n1 [Compound 6e]"
endpointvalue = 199

[[record]]
molecule = "Cc1cnc(Nc2ccc(N3CCC(N4CCN(C)CC4)CC3)cc2)nc1Nc1ccc2cn[nH]c2c1 [Compound 6j]"
endpointvalue = 14


[I] Cc1cnc(Nc2ccc(N3CCS(=O)(=O)CC3)cc2)nc1Nc1ccc2cn[nH]c2c1 [Compound 6d]
[II] Cc1cnc(Nc2ccc(N3CCN(C)CC3)cc2)nc1Nc1ccc2cn[nH]c2c1 [Compound 6g]
Lab note: record which item had the higher IC50, I or II . Mark your selection by writing its label.
I
(I: 99 nM, II: 13 nM)

* * *

Molecular target: FLT3 (Homo sapiens (Human), UniProt P36888)
Sequence (P36888 27-993): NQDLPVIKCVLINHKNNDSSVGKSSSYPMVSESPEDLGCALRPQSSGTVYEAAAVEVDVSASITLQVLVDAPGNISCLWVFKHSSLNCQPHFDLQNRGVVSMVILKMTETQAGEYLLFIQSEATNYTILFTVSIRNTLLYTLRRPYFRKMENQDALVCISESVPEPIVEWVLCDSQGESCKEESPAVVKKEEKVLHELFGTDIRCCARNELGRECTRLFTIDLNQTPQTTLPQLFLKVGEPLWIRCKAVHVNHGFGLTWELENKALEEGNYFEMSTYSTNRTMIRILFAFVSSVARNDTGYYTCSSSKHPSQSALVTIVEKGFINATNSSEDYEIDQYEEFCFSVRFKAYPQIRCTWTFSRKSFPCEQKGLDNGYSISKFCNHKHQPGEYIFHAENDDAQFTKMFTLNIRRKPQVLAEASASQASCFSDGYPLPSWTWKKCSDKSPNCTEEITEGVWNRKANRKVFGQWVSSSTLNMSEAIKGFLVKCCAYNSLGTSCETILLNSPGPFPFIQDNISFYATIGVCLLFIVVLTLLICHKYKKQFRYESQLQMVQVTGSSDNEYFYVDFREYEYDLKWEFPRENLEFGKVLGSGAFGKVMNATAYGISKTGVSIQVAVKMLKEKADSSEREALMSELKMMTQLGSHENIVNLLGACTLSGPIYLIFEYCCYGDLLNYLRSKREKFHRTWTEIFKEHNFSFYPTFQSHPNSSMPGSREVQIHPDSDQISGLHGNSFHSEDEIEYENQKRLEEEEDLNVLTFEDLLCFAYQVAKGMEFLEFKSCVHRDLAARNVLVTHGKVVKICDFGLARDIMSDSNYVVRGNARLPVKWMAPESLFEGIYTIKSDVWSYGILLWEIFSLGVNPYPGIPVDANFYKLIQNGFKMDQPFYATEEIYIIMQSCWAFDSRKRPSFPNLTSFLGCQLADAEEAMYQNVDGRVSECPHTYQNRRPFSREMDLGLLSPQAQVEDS
Experiment: Caliper Mobility Shift kinase inhibition test
Assay type: biochemical
Details: 100 nM; read-out: inhibitory rate on FLT3
measuredAttribute: inhibition at 0.1 µM (%)

In the examples that follow, each entry is paired with its recorded inhibition at 0.1 µM.
[[record]]
compound = "CN1CCN(c2ccc(Nc3ncc(F)c(Nc4ccc5cn[nH]c5c4)n3)cc2)CC1"
endpointvalue = 87.5

[[record]]
compound = "Cc1ccc(Nc2nccc(N(C)c3ccc4c(C)n(C)nc4c3)n2)cc1S(N)(=O)=O [Pazopanib, reference compound]"
endpointvalue = 80.6

[[record]]
compound = "CN1CCN(c2ccc(Nc3ncc(C(F)(F)F)c(Nc4ccc5cn[nH]c5c4)n3)cc2)CC1"
endpointvalue = 78.6

[[record]]
compound = "Cc1cnc(Nc2ccc(N3CCNCC3)cc2)nc1Nc1ccc2cn[nH]c2c1"
endpointvalue = 87.3


[1] Cc1cnc(Nc2ccc(N3CCN(C)CC3)cc2)nc1Nc1ccc2cnn(C)c2c1
[2] CCOC(=O)c1cnc(Nc2ccc(N3CCN(C)CC3)cc2)nc1Nc1ccc2cn[nH]c2c1
[3] COc1cc(N2CCC(N3CCN(C)CC3)CC2)ccc1Nc1ncc(C)c(Nc2ccc3cn[nH]c3c2)n1
[4] CN1CCN(c2ccc(Nc3nc(Nc4ccc5cn[nH]c5c4)cc(C(F)(F)F)n3)cc2)CC1
Thanks in advance: please rank these 4 entries by inhibition at 0.1 µM, highest to lowest. # list labels per requested ordering
1, 3, 2, 4
(1: 88.7%, 3: 58.4%, 2: 34.8%, 4: 14.6%)
